B1: BCL2L13 (parent)
chain: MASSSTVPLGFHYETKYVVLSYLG

variants of: B1; assay: protein stability index of a GFP-peptide fusion (GPS, HEK-293T) (PSI 1-6); higher = more stable; details: c terminus: a fixed tail appended;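 further: lentivirally expressed fusions sorted by FACS into six bins by GFP to DsRed ratio, PSI derived from sequencing read proportions per bin multiplied by bin number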
Endpoint label: protein stability index
Answers are plain numbers.

Examples from the recorded data:
1) V19D ... 1.45
2) S3K ... 2.62
3) G24T ... 2.13

Quick one: give me protein stability index for each item below, same order please.
1. G10E
2. L20I

Given back:
1. 2.13
2. 1.71

Quick one: give me protein stability index for each item below, same order please.
1. L23Q
2. M1H
3. T15D
4. V19N

Given back:
[1.48, 2.59, 2.03, 1.94]

Quick one: give me protein stability index for each item below, same order please.
1. P8W
2. P8Q
3. S5M
4. S4P
5. L23G
6. Y13W

Given back:
[3.73, 2.54, 2.51, 3.27, 1.71, 2.16]

Quick one: give me protein stability index for each item below, same order please.
1. G10W
2. L20P
3. S5Q
4. S21R

Given back:
1: 2.57; 2: 1.7; 3: 2.96; 4: 3.78

Quick one: give me protein stability index for each item below, same order please.
1. S3N
2. L9Q
3. M1Y

Given back:
2.59
2.62
2.09
